biological target: CYP3A4 (Homo sapiens, UniProt P08684); construct: purchased; assay: Incubation of filapixant with human recombinant CYP3A4 (Supersomes); assay type: in vitro ADME; settings: 1 µM [3H]filapixant, CYP3A4, 60 min
Sequence (P08684 whole entry): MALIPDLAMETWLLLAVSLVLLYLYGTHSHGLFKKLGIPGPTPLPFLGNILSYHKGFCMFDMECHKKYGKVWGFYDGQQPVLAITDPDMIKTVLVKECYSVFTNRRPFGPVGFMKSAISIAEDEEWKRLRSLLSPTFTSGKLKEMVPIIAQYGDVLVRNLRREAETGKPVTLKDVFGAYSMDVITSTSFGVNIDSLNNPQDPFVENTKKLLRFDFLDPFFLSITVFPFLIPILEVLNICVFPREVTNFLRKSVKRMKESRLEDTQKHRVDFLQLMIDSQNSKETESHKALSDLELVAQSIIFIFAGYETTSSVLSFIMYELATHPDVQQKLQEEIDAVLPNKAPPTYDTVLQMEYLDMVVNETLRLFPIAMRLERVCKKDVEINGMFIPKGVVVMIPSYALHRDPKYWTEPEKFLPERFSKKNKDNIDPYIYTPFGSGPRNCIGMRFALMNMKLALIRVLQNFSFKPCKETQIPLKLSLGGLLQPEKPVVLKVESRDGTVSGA
Remaining drug and formation of metabolites, Peak Area values by entry

Value sought: Remaining drug and formation of metabolites, Peak Area, system CYP3A4 (Homo sapiens, UniProt P08684), item Cc1cnc(-c2cc(OC[C@H](O)CN)cc(C(=O)N[C@H](C)c3cnc(C(F)(F)F)nc3)c2)s1 [M-11] . Result: 1.9 % of Radioactivity

// Remaining drug and formation of metabolites, Peak Area (CYP3A4 (Homo sapiens, UniProt P08684)) for CNC[C@@H](O)COc1cc(C(=O)N[C@H](C)c2cnc(C(F)(F)F)nc2)cc(-c2ncc(C)s2)c1 [M-8] = 3.4 % of Radioactivity

Field Remaining drug and formation of metabolites, Peak Area (CYP3A4 (Homo sapiens, UniProt P08684)), entry Cc1cnc(-c2cc(OC[C@H]3CN(C)C(=O)CO3)cc(C(=O)N[C@H](C)c3cnc(C(F)(F)F)nc3)c2)s1 [M-4] : 6.1 % of Radioactivity

# value of Remaining drug and formation of metabolites, Peak Area, CYP3A4 (Homo sapiens, UniProt P08684), item Cc1cnc(-c2cc(O)cc(C(=O)N[C@H](C)c3cnc(C(F)(F)F)nc3)c2)s1 [M-6] = 6.0 % of Radioactivity

Entry C[C@@H](NC(=O)c1cc(OC[C@H]2CN(C)CCO2)cc(-c2ncc(C(=O)O)s2)c1)c1cnc(C(F)(F)F)nc1 [M-5] : Remaining drug and formation of metabolites, Peak Area on CYP3A4 (Homo sapiens, UniProt P08684) = 0.4 % of Radioactivity

Known value: CYP3A4 (Homo sapiens, UniProt P08684) Remaining drug and formation of metabolites, Peak Area of the compound C[C@@H](NC(=O)c1cc(OC[C@H]2CN(C)CCO2)cc(-c2ncc(CO)s2)c1)c1cnc(C(F)(F)F)nc1 [M-3] equals 0.5 % of Radioactivity

src = paper PMC12564180
